target: Brunfelsia calycina POD (purified 40-kDa anthocyanin degradation-related peroxidase; BcPrx01 suggested); construct: native POD purified from petals, close to 40 kDa; assay: guaiacol/H2O2 peroxidase activity assay with purified POD, absorbance at […] nm
pIC50: −log10 of the molar value.

- compound: "O=C(O[C@@H]1Cc2c(O)cc(O)cc2O[C@@H]1c1ccc(O)c(O)c1)c1cc(O)c(O)c(O)c1 [ECG, epicatechin-3-gallate]"
  pIC50: 4.67
- compound: "O=C(O[C@@H]1Cc2c(O)cc(O)cc2O[C@H]1c1cc(O)c(O)c(O)c1)c1cc(O)c(O)c(O)c1 [GCG, gallocatechin-3-gallate]"
  pIC50: 4.53

Provenance of the data: paper PMC5412285
